# MEASURED_TARGET: ΔF508-CFTR (Homo sapiens, UniProt P13569, DEL508-508)
# Sequence (P13569 with tags, fused parts or gaps DEL508-508): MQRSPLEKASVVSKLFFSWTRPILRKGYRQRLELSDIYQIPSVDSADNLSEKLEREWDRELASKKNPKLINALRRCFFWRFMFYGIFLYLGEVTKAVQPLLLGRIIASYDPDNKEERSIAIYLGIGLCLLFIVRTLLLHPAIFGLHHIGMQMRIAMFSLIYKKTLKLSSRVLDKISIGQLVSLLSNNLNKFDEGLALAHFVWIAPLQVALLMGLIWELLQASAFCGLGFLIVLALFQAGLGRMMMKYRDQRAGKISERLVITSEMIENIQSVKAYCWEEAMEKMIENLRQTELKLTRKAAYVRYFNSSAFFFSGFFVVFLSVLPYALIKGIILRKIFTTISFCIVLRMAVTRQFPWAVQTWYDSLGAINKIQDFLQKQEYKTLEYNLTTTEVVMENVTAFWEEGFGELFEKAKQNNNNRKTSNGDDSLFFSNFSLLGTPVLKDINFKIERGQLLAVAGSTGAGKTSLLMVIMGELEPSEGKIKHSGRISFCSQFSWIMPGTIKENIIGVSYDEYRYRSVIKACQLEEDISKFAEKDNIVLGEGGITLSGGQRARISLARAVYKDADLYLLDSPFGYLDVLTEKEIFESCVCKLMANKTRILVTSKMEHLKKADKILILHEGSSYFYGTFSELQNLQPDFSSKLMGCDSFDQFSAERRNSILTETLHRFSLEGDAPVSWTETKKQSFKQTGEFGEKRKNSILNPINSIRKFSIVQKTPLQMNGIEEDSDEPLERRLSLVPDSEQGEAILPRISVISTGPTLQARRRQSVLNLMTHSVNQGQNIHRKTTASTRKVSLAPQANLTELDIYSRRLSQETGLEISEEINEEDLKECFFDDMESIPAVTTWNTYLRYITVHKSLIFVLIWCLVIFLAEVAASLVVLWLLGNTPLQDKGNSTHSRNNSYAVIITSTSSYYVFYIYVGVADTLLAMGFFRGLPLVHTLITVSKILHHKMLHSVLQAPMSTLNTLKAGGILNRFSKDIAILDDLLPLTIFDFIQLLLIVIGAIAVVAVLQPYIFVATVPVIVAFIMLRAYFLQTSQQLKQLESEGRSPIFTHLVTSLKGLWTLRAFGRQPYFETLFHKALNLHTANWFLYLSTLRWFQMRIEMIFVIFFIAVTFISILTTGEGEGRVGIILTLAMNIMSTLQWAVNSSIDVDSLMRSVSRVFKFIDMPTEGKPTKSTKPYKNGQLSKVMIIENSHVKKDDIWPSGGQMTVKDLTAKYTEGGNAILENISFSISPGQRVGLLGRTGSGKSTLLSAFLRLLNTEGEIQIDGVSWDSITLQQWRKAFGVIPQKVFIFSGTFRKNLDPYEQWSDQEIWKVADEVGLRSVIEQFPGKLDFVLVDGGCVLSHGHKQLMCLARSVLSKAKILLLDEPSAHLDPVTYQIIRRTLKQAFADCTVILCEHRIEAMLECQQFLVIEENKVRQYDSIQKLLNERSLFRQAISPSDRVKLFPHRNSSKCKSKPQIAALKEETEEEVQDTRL
# PROCEDURE_SUMMARY: Membrane potential optical (FRET/VIPR) assay, identification of correction compounds
# STATED_CONDITIONS: Table 3; assay not given
pEC50: −log10 of the molar value.
Assign pEC50 to each entry below.

For each of the compounds below, state pEC50.
1. O=C(Nc1ncc(C(c2ccccc2Cl)N2CC[C@@H](O)C2)s1)C1(c2ccc(F)cc2)CC1 (some centres unmarked)
2. COc1cccc(C(c2csc(NC(=O)C3(c4ccc5c(c4)OCO5)CC3)n2)N2CCC(O)CC2)c1 (centres unmarked)
3. COc1cccc(C2(C(=O)Nc3ncc(C(c4ccccc4Cl)N4CC[C@@H](O)C4)s3)CC2)c1 (some centres unmarked)
4. CC(C)[C@H](CO)NC(c1ccc2c(c1)OC(F)(F)O2)c1cnc(NC(=O)C2(c3ccc4c(c3)OCO4)CC2)s1 (some centres unmarked)
5. O=C(Nc1ncc(C(NCc2ccco2)c2ccccc2Cl)s1)C1(c2ccc3c(c2)OCO3)CC1 (centres unmarked)

4.60 to 5.00
4.60 to 5.00
> 5.00
> 5.00
> 5.00

For each of the compounds below, state pEC50.
1. O=C(Nc1ncc(-c2ccncc2)s1)C1(c2ccc3c(c2)OCO3)CC1
2. COc1ccccc1C(c1cnc(NC(=O)C2(c3ccc4c(c3)OCO4)CC2)s1)N(C)C (centres unmarked)
3. COc1ccc(C2(C(=O)Nc3nc(-c4cccc(OC)c4)cs3)CC2)cc1

1: 4.60 to 5.00; 2: 4.60 to 5.00; 3: > 5.00

====

# MEASURED_TARGET: ΔF508-CFTR (Homo sapiens, UniProt P13569, DEL508-508)
# PROCEDURE_SUMMARY: Membrane potential optical (FRET/VIPR) assay, identification of correction compounds
# STATED_CONDITIONS: Table 3; assay not given
MEASURED_PROPERTY: EC50

Take a look at these entries with their results.
Cn1nnc2cc(C3(C(=O)Nc4ncc(Cc5ccccc5Cl)s4)CC3)ccc21 [Example 304] :: < 10 µM
CC(C)OC(c1cnc(NC(=O)C2(c3ccc4c(c3)OCO4)CC2)s1)c1ccccc1Cl (stereo not shown) [Example 261] :: < 10 µM
COc1ccc(C2(C(=O)Nc3ncc(Cc4cnccc4OC)s3)CC2)cc1 [Example 242] :: < 10 µM
CSc1ccc(C2(C(=O)Nc3ncc(Cc4ccccc4Cl)s3)CC2)cc1 [Example 175] :: < 10 µM
O=C1CCCc2nc(NC(=O)C3(c4ccc5c(c4)OCO5)CC3)sc21 [Example 190] :: 10 to 25 µM

For each of the molecules below, state EC50.
1. CCC(c1ccccc1)c1nnc(NC(=O)C2(c3ccc4c(c3)OCO4)CC2)s1 (stereo not shown) [Example 301]
2. O=C(Nc1ncc(Sc2cccc(Cl)c2)s1)C1(c2ccc3c(c2)OCO3)CC1 [Example 102]
3. COc1cccc(C(c2cnc(NC(=O)C3(c4ccc5c(c4)OCO5)CC3)s2)N(C)C)c1 (stereo not shown) [Example 366]
4. NC(=O)C1CCCN1C(Cc1ccccc1Cl)c1cnc(NC(=O)C2(c3ccc4c(c3)OCO4)CC2)s1 (stereo not shown) [Example 458]
5. COc1ccccc1C(c1cnc(NC(=O)C2(c3ccc4c(c3)OCO4)CC2)s1)N1CC[C@@H](O)C1 (stereo partly shown) [Example 346]
6. COc1ccccc1C(c1cnc(NC(=O)C2(c3ccc4c(c3)OCO4)CC2)s1)N1CCOCC1 (stereo not shown) [Example 399]

1: < 10 µM; 2: < 10 µM; 3: 10 to 25 µM; 4: < 10 µM; 5: 10 to 25 µM; 6: < 10 µM

Where these numbers come from: patent US7977322B2
